B1: Zinc finger MYM-type protein 3, residues 405 to 444; numbered along this chain, Q14202 (parent)
chain: DATRCSICQKTGEVLHEVSNGSVVHRLCSDSCFSKFRANK

# Variants of: B1
# assay text: abundance fitness (aPCA) (normalised: wild type 0, dead -1); higher = more abundant; growth selection in yeast, the domain comes from the species named
# condition description: Homo sapiens

{"entry sequence": "DATRCSICQKTGEVLHEVSNGSVVHRLCSWSCFSKFRANK [D30W]", "abundance fitness": -1.07}
{"entry sequence": "DATRCSICQKTQEVLHEVSNGSVVHRLCSDSCFSKFRANK [G12Q]", "abundance fitness": -0.228}
{"entry sequence": "DATRCSICQKTGEVLMEVSNGSVVHRLCSDSCFSKFRANK [H16M]", "abundance fitness": -0.551}
{"entry sequence": "DATRCSICQKTGEVLHEVSNDSVVHRLCSDSCFSKFRANK [G21D]", "abundance fitness": 0.016}
{"entry sequence": "DATRCSICQKTGEVLHEVSNGSVVHRLCSDSCNSKFRANK [F33N]", "abundance fitness": 0.01}
{"entry sequence": "DATRCSICQKTGEVLHEVINGSVVHRLCSDSCFSKFRANK [S19I]", "abundance fitness": -0.11}
{"entry sequence": "DATRCSICQKTVEVLHEVSNGSVVHRLCSDSCFSKFRANK [G12V]", "abundance fitness": -0.137}
{"entry sequence": "DATRCSICQKTGEVLHEVSNGSVVHRLCSDDCFSKFRANK [S31D]", "abundance fitness": 0.094}
{"entry sequence": "DATRCSICQKTGEVLHEVSNGSVVHRLCSDSCFIKFRANK [S34I]", "abundance fitness": -0.126}
{"entry sequence": "DATRCSICQKTGEVLHEVSNGAVVHRLCSDSCFSKFRANK [S22A]", "abundance fitness": -0.109}
{"entry sequence": "DATRCSICQKTGEVLHEVSNGSVVHRLTSDSCFSKFRANK [C28T]", "abundance fitness": -0.853}
{"entry sequence": "DATRCSICQKTGEVLHEVSQGSVVHRLCSDSCFSKFRANK [N20Q]", "abundance fitness": -0.004}
{"entry sequence": "DATRCSICQKTGEVLHEVSNGSVVHRLCSDSKFSKFRANK [C32K]", "abundance fitness": -0.727}
{"entry sequence": "DATRCSICQKTGEVLHEVSNGRVVHRLCSDSCFSKFRANK [S22R]", "abundance fitness": -0.136}
{"entry sequence": "DATRCSICQKTGEVLHEVSNGSVVHRLCSDSLFSKFRANK [C32L]", "abundance fitness": -0.676}
{"entry sequence": "DATRCSICQKTGEVLHEVSNGSVVHRLCSDSCFSKFRANR [K40R]", "abundance fitness": 0.023}
{"entry sequence": "DATRCSICQKTGEVLHEVYNGSVVHRLCSDSCFSKFRANK [S19Y]", "abundance fitness": -0.383}
{"entry sequence": "DMTRCSICQKTGEVLHEVSNGSVVHRLCSDSCFSKFRANK [A2M]", "abundance fitness": 0.48}
{"entry sequence": "DATRCSACQKTGEVLHEVSNGSVVHRLCSDSCFSKFRANK [I7A]", "abundance fitness": -0.325}
{"entry sequence": "DATCCSICQKTGEVLHEVSNGSVVHRLCSDSCFSKFRANK [R4C]", "abundance fitness": -0.012}
{"entry sequence": "DATRCSICQKTGEVLHEVSNGMVVHRLCSDSCFSKFRANK [S22M]", "abundance fitness": 0.021}
{"entry sequence": "DATRCSICQKTGEVLHEVSNGSVVHRLCSSSCFSKFRANK [D30S]", "abundance fitness": -0.387}
{"entry sequence": "DATRCSICQKTGEVLHEVSNKSVVHRLCSDSCFSKFRANK [G21K]", "abundance fitness": -0.214}
{"entry sequence": "DATRCSICQKTGEVLHEVSNGSVVHRLCSDSNFSKFRANK [C32N]", "abundance fitness": -0.808}
{"entry sequence": "DATRCSICQKTGEVLHEVSNGSVVHRLCSESCFSKFRANK [D30E]", "abundance fitness": -0.041}
{"entry sequence": "DATRCSICQKTGEVLHEVSNGSVVHRLCSDSCFSCFRANK [K35C]", "abundance fitness": -0.959}
{"entry sequence": "DATRCSICQKTDEVLHEVSNGSVVHRLCSDSCFSKFRANK [G12D]", "abundance fitness": -0.311}
{"entry sequence": "DATICSICQKTGEVLHEVSNGSVVHRLCSDSCFSKFRANK [R4I]", "abundance fitness": 0.211}
{"entry sequence": "DATRCSICQKTGECLHEVSNGSVVHRLCSDSCFSKFRANK [V14C]", "abundance fitness": -0.453}
{"entry sequence": "DATRCSICQKTGEVLHEVSNGSSVHRLCSDSCFSKFRANK [V23S]", "abundance fitness": 0.007}
{"entry sequence": "DATRCSICQKTGEVLHEVSNGSVVHRLCSDSCFSKFWANK [R37W]", "abundance fitness": -0.288}
{"entry sequence": "DATRCSICQKTGEVLHEVSNGSVVHRLCSDSCFSKFRINK [A38I]", "abundance fitness": -0.215}
{"entry sequence": "DATRCSICQKTGEVLHEVSRGSVVHRLCSDSCFSKFRANK [N20R]", "abundance fitness": -0.135}
{"entry sequence": "DATRCSICQKTGEVLHEVSNGSVVHRLCSDSCFSKFRASK [N39S]", "abundance fitness": 0.003}
{"entry sequence": "DATRCSICQKTGESLHEVSNGSVVHRLCSDSCFSKFRANK [V14S]", "abundance fitness": -0.185}
{"entry sequence": "DATRCSICQKTMEVLHEVSNGSVVHRLCSDSCFSKFRANK [G12M]", "abundance fitness": -0.089}
{"entry sequence": "DATRCSICQKTGEVLHELSNGSVVHRLCSDSCFSKFRANK [V18L]", "abundance fitness": -0.157}
{"entry sequence": "DATRCSICQKTGEVLHEVSNGSVVGRLCSDSCFSKFRANK [H25G]", "abundance fitness": -0.164}
